These data points were gathered from PubChem BioAssay AID1963839.

System: 817829-284-R-J1-PDC complex spheroid viability;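 also: spheroids exposed to compounds for 7 days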
Procedure Details: Anticancer human tumor 817829-284-R-J1-PDC patient-derived colon adenocarcinoma cell line growth inhibition [POLQ]
Study Conditions: curve of first compound; second compound 1 µM
Would you mind telling me the reported pIC50 of each entry?
Numbers only, as −log10 of the molar value.

>>> meas_value("CCCS(=O)(=O)Nc1ccc(F)c(C(=O)c2c[nH]c3ncc(-c4ccc(Cl)cc4)cc23)c1F + COC1C(OC(N)=O)C(O)C(Oc2ccc3c(O)c(NC(=O)c4ccc(O)c(CC=C(C)C)c4)c(=O)oc3c2C)OC1(C)C")
5.54

The record that follows has no pIC50 shown yet.
Exercise: Please give the documented pIC50 of Cn1ncnc1[C@H]1c2n[nH]c(=O)c3cc(F)cc(c23)N[C@@H]1c1ccc(F)cc1 + COC1C(OC(N)=O)C(O)C(Oc2ccc3c(O)c(NC(=O)c4ccc(O)c(CC=C(C)C)c4)c(=O)oc3c2C)OC1(C)C
Key: 7.62
